Molecular target: FGFR2 (Homo sapiens, UniProt P21802)
Sequence (P21802 399-821 limits assumed): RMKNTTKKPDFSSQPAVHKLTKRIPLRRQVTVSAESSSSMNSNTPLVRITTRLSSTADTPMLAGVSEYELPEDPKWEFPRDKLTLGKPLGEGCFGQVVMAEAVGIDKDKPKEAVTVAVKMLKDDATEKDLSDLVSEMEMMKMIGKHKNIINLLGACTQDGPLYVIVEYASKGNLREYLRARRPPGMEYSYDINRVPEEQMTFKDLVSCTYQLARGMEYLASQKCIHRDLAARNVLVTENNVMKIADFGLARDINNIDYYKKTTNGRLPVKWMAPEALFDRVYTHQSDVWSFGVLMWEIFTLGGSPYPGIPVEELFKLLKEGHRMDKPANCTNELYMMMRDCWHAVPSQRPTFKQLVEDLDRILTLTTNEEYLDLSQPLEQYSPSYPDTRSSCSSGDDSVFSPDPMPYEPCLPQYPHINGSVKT
Assay: FGFR wild type enzyme assay (HTRF KinEASE-TK), FGFR2
Details: Enz FGFR2 (nM)
Catalogue of IC50 values

>  <chem-smiles>
Cc1c(-c2cc(Sc3ccccc3C#N)c3c(C#N)cnn3c2)cnn1[C@H]1CCCNC1

>  <IC50 / nM>
1

$$$$
>  <chem-smiles>
CC(C)Sc1cc(-c2cnn([C@H]3CCCN(C[C@H](O)CO)C3)c2)cn2ncc(C#N)c12

>  <IC50 / nM>
1

$$$$
>  <chem-smiles>
Cc1c(-c2cc(Sc3ccccc3F)c3c(C#N)cnn3c2)cnn1C1CCN(C)CC1

>  <IC50 / nM>
1

$$$$

* * *

Target: FGFR2 (Homo sapiens, UniProt P21802)
Experiment: FGFR wild type enzyme assay (HTRF KinEASE-TK), FGFR2
Conditions: Enz FGFR2 (nM), FGFR2 wild type enzyme
# reported IC50; entries follow

>  <chem-smiles>
CC(=O)N1CCC[C@H](n2ncc(-c3cc(Sc4ccc(F)cn4)c4c(C#N)cnn4c3)c2C)C1

>  <IC50 (nM)>
7

$$$$
>  <chem-smiles>
Cc1c(-c2cc(Sc3ccccc3C#N)c3c(C#N)cnn3c2)cnn1C[C@@H]1CNCCO1

>  <IC50 (nM)>
3.5

$$$$
>  <chem-smiles>
CC(=O)N(C)[C@H]1CC[C@@H](n2ncc(-c3cc(Sc4ncccc4F)c4c(C#N)cnn4c3)c2C)CC1

>  <IC50 (nM)>
2

$$$$
>  <chem-smiles>
Cc1c(-c2cc(Sc3ncccc3F)c3c(C#N)cnn3c2)cnn1[C@H](C)C1CCNCC1

>  <IC50 (nM)>
3

$$$$
>  <chem-smiles>
Cc1c(-c2cc(Sc3ccccc3C#N)c3c(C#N)cnn3c2)cnn1[C@H]1C[C@H]2CC[C@@H](C1)N2C

>  <IC50 (nM)>
1

$$$$
>  <chem-smiles>
CN[C@H]1CC[C@@H](n2ncc(-c3cc(Sc4ccccn4)c4c(C#N)cnn4c3)c2C)CC1

>  <IC50 (nM)>
2

$$$$
>  <chem-smiles>
Cc1c(-c2cc(Sc3ccccc3C#N)c3c(C#N)cnn3c2)cnn1C1CCN(C[C@H](C)O)CC1

>  <IC50 (nM)>
13

$$$$
>  <chem-smiles>
Cc1c(-c2cc(Sc3ncccc3F)c3c(C#N)cnn3c2)cnn1C1CCN(CC(=O)N(C)C)CC1

>  <IC50 (nM)>
1.4

$$$$
>  <chem-smiles>
Cc1c(-c2cc(Sc3ccccc3C#N)c3c(C#N)cnn3c2)cnn1[C@H]1CC[C@@H](NC(=O)C(C)(C)O)CC1

>  <IC50 (nM)>
0.4

$$$$
>  <chem-smiles>
Cc1c(-c2cc(Sc3ncccc3F)c3c(C#N)cnn3c2)cnn1[C@@H]1CC[C@H](O)[C@H](O)C1

>  <IC50 (nM)>
2

$$$$
>  <chem-smiles>
Cc1c(-c2cc(Sc3ncccc3F)c3c(C#N)cnn3c2)cnn1[C@H]1CC[C@H](O)CC1

>  <IC50 (nM)>
1

$$$$
>  <chem-smiles>
Cc1c(-c2cc(Sc3ncccc3F)c3c(C#N)cnn3c2)cnn1C1CCN(C[C@@H](C)O)CC1

>  <IC50 (nM)>
2

$$$$
>  <chem-smiles>
Cc1nn(C2CCN(C)CC2)c(C)c1-c1cc(Sc2ncccc2F)c2c(C#N)cnn2c1

>  <IC50 (nM)>
6

$$$$
>  <chem-smiles>
Cc1c(-c2cc(Sc3ccc(F)cc3C#N)c3c(C#N)cnn3c2)cnn1[C@@H]1C[C@H]2CC[C@@H](C1)N2C

>  <IC50 (nM)>
0.5

$$$$
>  <chem-smiles>
Cc1c(-c2cc(Sc3ccccc3C#N)c3c(C#N)cnn3c2)cnn1[C@H]1CC[C@@H](NC(C)C)CC1

>  <IC50 (nM)>
0.5

$$$$
>  <chem-smiles>
CC(=O)N1CCC(Cn2ncc(-c3cc(Sc4ncccc4F)c4c(C#N)cnn4c3)c2C)CC1

>  <IC50 (nM)>
3

$$$$
>  <chem-smiles>
CN(C)[C@H]1CC[C@@H](n2cc(-c3cc(Sc4ccccc4C#N)c4c(C#N)cnn4c3)cn2)CC1

>  <IC50 (nM)>
0.5

$$$$
>  <chem-smiles>
Cc1c(-c2cc(Sc3ccc(F)cc3C#N)c3c(C#N)cnn3c2)cnn1[C@H]1CC[C@](C)(O)CC1

>  <IC50 (nM)>
1

$$$$
>  <chem-smiles>
Cc1c(-c2cc(Sc3ccc(F)cn3)c3c(C#N)cnn3c2)cnn1[C@@H]1C[C@H]2CC[C@@H](C1)N2C(=O)CO

>  <IC50 (nM)>
8

$$$$
>  <chem-smiles>
Cc1c(-c2cc(Sc3ccccc3C#N)c3c(C#N)cnn3c2)cnn1C[C@H]1CCCNC1

>  <IC50 (nM)>
2

$$$$
>  <chem-smiles>
Cc1c(-c2cc(Sc3ccccc3C#N)c3c(C#N)cnn3c2)cnn1C1CCN(Cc2ncccn2)CC1

>  <IC50 (nM)>
1

$$$$
>  <chem-smiles>
Cc1c(-c2cc(Sc3ccccn3)c3c(C#N)cnn3c2)cnn1[C@H]1CC[C@@H](O)CC1

>  <IC50 (nM)>
4

$$$$
>  <chem-smiles>
CN(C)[C@H]1CC[C@@H](n2cc(-c3cc(Sc4ncccc4F)c4c(C#N)cnn4c3)cn2)CC1

>  <IC50 (nM)>
1

$$$$
>  <chem-smiles>
CCN[C@H]1CC[C@@H](n2ncc(-c3cc(Sc4ncccc4F)c4c(C#N)cnn4c3)c2C)CC1

>  <IC50 (nM)>
1

$$$$
